experiment: in vitro; conditions: pig, PAMPA
MEASURE: Papp at 4 h (nm/s)

a. Cc1ccc(/C=C(NC=O)/C(=C/c2ccc(C)c(C)c2)NC=O)cc1C
b. Cc1ccc(/C=C(NC=O)/C(=C/c2ccc(C)cc2)NC=O)cc1
Request: Param metric = Papp at 4 h; output whichever of a , b has the minimum value. Answer by quoting the chosen item's label.
Response: b
